Conditions: in ethyl acetate, 313.2 K

{"columns": ["smilesRepresentation", "solubility (mole fraction)"],
 "data": [
  ["CC(C)CCC[C@@H](C)[C@H]1CC[C@H]2[C@@H]3CC=C4C[C@@H](O)CC[C@]4(C)[C@H]3CC[C@]12C", 0.0209]
]}

---

Conditions: in acetic acid, 303.2 K

{"columns": ["smilesRepresentation", "solubility (mole fraction)"],
 "data": [
  ["CC(C)CCC[C@@H](C)[C@H]1CC[C@H]2[C@@H]3CC=C4C[C@@H](O)CC[C@]4(C)[C@H]3CC[C@]12C", 0.00143]
]}

---

Details: in ethyl acetate, 303.2 K

{"columns": ["smilesRepresentation", "solubility (mole fraction)"],
 "data": [
  ["CC(C)CCC[C@@H](C)[C@H]1CC[C@H]2[C@@H]3CC=C4C[C@@H](O)CC[C@]4(C)[C@H]3CC[C@]12C", 0.0146]
]}
